- Test system: PRMT1 (protein arginine N-methyltransferase 1)
- measurementProtocol: PRMT1 binders on small-molecule microarrays, primary screen, biochemical, small-molecule microarray, 635 nm fluorescence (AID 1088);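 further: binding of Prmt1 protein to compounds spotted on small-molecule microarray slides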
- conditionParameters: small-molecule microarray binding, higher = more signal
composite z-score of 1 or higher: Met. Under 1: Not met.

See these solved cases before continuing.
{"molecule": "COC(=O)[C@@]1(Cc2ccccc2)N=C(c2ccc(OCCCO)cc2)O[C@H]1c1ccccc1", "cat": "Met"}
{"molecule": "O=C(NCCN1CCOCC1)[C@@H]1c2ccccc2C(=O)N(C2CCCCC2)[C@H]1c1ccc(CO)cc1", "cat": "Not met"}
{"molecule": "COc1ccc([C@H]2OC[C@@H]3C[C@@H](Cc4ccccc4)C(=O)N32)cc1", "cat": "Not met"}
{"molecule": "COC(=O)[C@@]1(Cc2ccc(OC)cc2)[C@H]2c3cc(C(=O)N(C)C)n(Cc4ccccn4)c3C[C@H]2CN1C(=O)c1ccccc1", "cat": "Not met"}
{"molecule": "COc1ccc([Si](C)(C)[C@H]2[C@H](CC(=O)N3Cc4ccccc4C[C@H]3CO)O[C@@]3(C(=O)N(Cc4cccc(N5CCC5=O)c4)c4ccccc43)[C@@H]2C)cc1", "cat": "Met"}
{"molecule": "CCOC(=O)C[C@H]1[C@H](OC(=O)c2cc3ccccc3oc2=O)[C@@H](NC(=O)c2ccccc2)c2cc(OCCCO)ccc2N1C(=O)c1ccc2ccccc2n1", "cat": "Not met"}
{"molecule": "CC(C)NC(=O)[C@@]1(c2ccc([N+](=O)[O-])cc2)CC(=O)N(C2CCCCC2)[C@@H]1c1ccc(CO)cc1I", "cat": "Met"}
{"molecule": "COCC(=C=CC[C@@H](O)c1cccc(OCCO)c1)C[C@@H](O)c1ccccn1", "cat": "Not met"}

Hi team, for CN1C(=O)C2C=CC(C(O)C3CC=CCC3)N(N(c3ccccc3)c3ccccc3)C2C1=O (centres undefined) , is the recorded composite z-score at or above 1?
Not met

Check this molecule for composite z-score at or above 1: COC(=O)C(CC#Cc1ccc2c(c1)[C@]1(C(=O)N2)[C@H](c2ccc(OCCO)cc2)N2[C@H](c3ccccc3)[C@H](c3ccccc3)OC(=O)[C@H]2[C@@H]1C(=O)Nc1nc2ccccc2s1)C(=O)OC
Met

Does composite z-score meet or surpass 1 for COc1cc2c(cc1OC)CN(C(=O)[C@@H]1[C@H]3C(=O)O[C@H](c4ccccc4)[C@H](c4ccccc4)N3[C@H](c3ccccc3OCCO)[C@@]13C(=O)Nc1ccc(C#CCCO)cc13)CC2 ?
Met

Determine whether this molecule has composite z-score no lower than 1: COC(=O)[C@@]1(Cc2ccc(OC)cc2)[C@H]2c3cc(C(=O)N(C)C)n(Cc4ccc(S(C)(=O)=O)cc4)c3C[C@H]2CN1C(=O)c1ccccc1
Not met

Tell me whether composite z-score is at least 1 here: C[C@@]1([C@@H](NC(=O)c2ccc(-c3ccccc3)cc2)c2ccc(Cl)cc2)C[C@H]1C1CCCCC1
Not met

composite z-score >= 1 for CN(C)CCCC[C@@H]1NC(=O)[C@H]2C[C@@H](C(=O)NCCCCCCN)[C@@H](c3ccc(O)cc3)N2C1=O ?
Met

----------
- measurementProtocol: Plasmodium falciparum growth inhibition, primary screen, strain 3D7, DAPI fluorescence, 100 nL (AID 1184);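 further: parasites grown inside human red blood cells in medium with human serum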
- conditionParameters: P. falciparum 3D7 growth, 3 d, higher = more signal
Would you mind telling me the reported z-score of each entry?
Numbers only.

Sample answers from the record:
{"compound": "CCOC(=O)C1=C[C@@H](C(C)(C)C)N(S(=O)(=O)c2ccc(C)cc2)[C@H]1c1ccc(F)cc1", "z-score": -1.92}
{"compound": "NC(=O)NCC#Cc1ccc2c(c1)[C@]1(C(=O)N2)[C@H](c2ccc(O)cc2)N2[C@H](c3ccccc3)[C@H](c3ccccc3)OC(=O)[C@H]2[C@@H]1C(=O)O", "z-score": 0.431}
{"compound": "C=C(CCCC)/C(=C/C[C@H](OC(C)=O)c1ccccc1OCCO)c1cc(C(=O)OC)ccc1OC", "z-score": -2.66}
{"compound": "C=CCC(OC(C)=O)[C@@H]1[C@@H](N(Cc2cccc3ccccc23)C(=O)c2ccc(-c3ccccc3)cc2)c2cc(OCCCO)ccc2N1C(=O)c1ccc2ccccc2c1 (some centres not stated)", "z-score": -1.55}
{"compound": "C[C@@]1([C@@H](NC(=O)c2ccc(-c3ccccc3)cc2)c2ccc(Cl)cc2)C[C@H]1C1CCCCC1", "z-score": -0.311}
{"compound": "CC(C)N1C(=O)[C@@]2(Cc3ccccc31)c1ccccc1C(=O)N(Cc1ccccc1Cl)[C@H]2c1ccc(CO)cc1", "z-score": -0.113}

Recorded z-score of COc1cc2c(cc1OC)CN(C(=O)[C@H]1[C@@H]3C(=O)O[C@@H](c4ccccc4)[C@@H](c4ccccc4)N3[C@@H](c3ccc(O)cc3)[C@]13C(=O)Nc1ccccc13)CC2 , please.
-0.044

----------
For each of the compounds below, state its composite z-score.
- System: Plasmodium falciparum Sir2 (PF13_0152, Sir2A)
- measurementProtocol: pfSir2 binders on small-molecule microarrays, primary screen, biochemical, small-molecule microarray, 635 nm fluorescence (AID 1098);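 further: score merges spot fluorescence intensity with its signal-to-noise ratio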
- conditionParameters: small-molecule microarray binding, fluorescence 635 nm; higher = more signal

# annotated cases, reported composite z-score shown
{"compound": "O=C1O[C@@H](c2ccccc2)[C@@H](c2ccccc2)N2[C@@H](c3ccccc3OCCO)[C@]3(C(=O)Nc4ccccc43)[C@@H](C(=O)Nc3nc4ccccc4s3)[C@H]12", "assaySystem": "Plasmodium falciparum Sir2 (PF13_0152, Sir2A)", "result": 1.02}
{"compound": "CO[C@H]1O[C@H](CO)[C@@H](OC(=O)Nc2cccc(F)c2)[C@H](OC(=O)Nc2ccccc2)[C@@H]1OC(=O)Nc1ccccc1", "assaySystem": "Plasmodium falciparum Sir2 (PF13_0152, Sir2A)", "result": 0.931}
{"compound": "COc1cc(COC(C)=O)ccc1OC(C)=O", "assaySystem": "Plasmodium falciparum Sir2 (PF13_0152, Sir2A)", "result": 0.0968}
{"compound": "COc1ccccc1CN1C(=O)c2ccccc2[C@@]2(Cc3ccccc3N(CC(C)C)C2=O)[C@@H]1c1ccc(CO)cc1", "assaySystem": "Plasmodium falciparum Sir2 (PF13_0152, Sir2A)", "result": -0.327}
{"compound": "CCCC[C@@H]1C[C@H]1[C@@H](NC(=O)c1cccs1)c1ccc(-c2ccccc2)cc1", "assaySystem": "Plasmodium falciparum Sir2 (PF13_0152, Sir2A)", "result": -0.0357}
{"compound": "COC(=O)[C@@]1(Cc2ccccc2)[C@H]2c3cc(C(=O)N4CCCC4)n(Cc4ccc(S(C)(=O)=O)cc4)c3C[C@H]2CN1C(=O)c1ccccc1", "assaySystem": "Plasmodium falciparum Sir2 (PF13_0152, Sir2A)", "result": 0.525}

Give composite z-score for all compounds that follow.
1. CCOC(=O)C[C@H]1[C@H](OC(=O)c2ccc(C(=O)c3ccccc3)cc2)[C@@H](NC(=O)c2ccc3ccccc3c2)c2cc(OCCCO)ccc2N1C(=O)Cc1ccc(OC)cc1
2. O=C1NC(=O)C2C1C=CC(C(O)c1cc(C(F)(F)F)cc(C(F)(F)F)c1)N2Nc1ccccn1 (stereo not drawn)

1: 1.14; 2: 1.57

----------
- assaySystem: Pro-neuregulin-1, membrane-bound isoform (Homo sapiens)
- measurementProtocol: NRG1 binders on small-molecule microarrays, primary screen, psychiatric disease protein project, biochemical, small-molecule microarray, fluorescence 635/667 (AID 1075);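 further: score combines 667 nm spot fluorescence with signal to noise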
- conditionParameters: NRG1 binding, 635 nm fluorescence, higher = more signal
# composite z-score >= 0.5 gives T, anything below gives F

API: above_or_equal(metric=composite z-score, cutoff=0.5) for item O=C1O[C@H](c2ccccc2)[C@H](c2ccccc2)N2[C@H]1[C@@H](C(=O)N1CCCCCCC1)[C@]1(C(=O)Nc3ccc(C#CCCO)cc31)[C@H]2c1ccccc1OCCO
T

Threshold query (composite z-score >= 0.5) on CC(C)N1C(=O)[C@@]2(Cc3ccccc31)c1ccccc1C(=O)N(Cc1ccccc1Cl)[C@H]2c1ccc(CO)cc1
F

----------
Would you kindly list composite z-score for each of these compounds?
- assaySystem: Left-right determination factor 2 (Homo sapiens) (UniProt O00292)
- Sequence (O00292 whole entry, looked up): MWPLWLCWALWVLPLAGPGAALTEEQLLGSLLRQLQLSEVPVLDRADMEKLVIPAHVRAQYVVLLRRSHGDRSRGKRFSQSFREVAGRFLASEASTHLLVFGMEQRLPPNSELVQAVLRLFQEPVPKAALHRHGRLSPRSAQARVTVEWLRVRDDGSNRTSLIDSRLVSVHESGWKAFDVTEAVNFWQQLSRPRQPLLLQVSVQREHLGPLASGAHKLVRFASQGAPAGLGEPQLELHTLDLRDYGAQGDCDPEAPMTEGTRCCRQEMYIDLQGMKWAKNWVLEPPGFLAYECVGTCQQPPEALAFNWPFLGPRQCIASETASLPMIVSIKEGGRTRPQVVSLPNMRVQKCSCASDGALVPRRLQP
- measurementProtocol: LEFTY2 binders on small-molecule microarrays, primary screen, biochemical, small-molecule microarray, 635 nm fluorescence scan (AID 1110)
- conditionParameters: LEFTY2 binding, higher = more signal
Numbers only.

{"chemicalStructure": "C=C[C@H](CO)NS(=O)(=O)c1ccc(Br)cc1", "composite z-score": 0.375}
{"chemicalStructure": "COC(=O)[C@]1(CCC(=O)OC(C)(C)C)N=C(c2ccc(OCCCO)cc2)O[C@@H]1c1ccccc1CN=[N+]=[N-]", "composite z-score": -0.684}
{"chemicalStructure": "C[N+](C)(C)CCCCNC(=O)[C@@H]1C[C@@H]2C(=O)N[C@@H](Cc3ccccc3)C(=O)N2[C@@H]1c1cccc(OCCO)c1", "composite z-score": 0.633}

Here is the next item to consider.
I'd like to know its composite z-score. The compound in question is NCCCCCCNC(=O)[C@@H]1C[C@@H]2C(=O)NCC(=O)N2[C@@H]1c1ccc(O)cc1
1.14

Source listed as PubChem BioAssay.
